- Assayed Target: Phosphatidylinositol 4,5-bisphosphate 3-kinase catalytic subunit alpha isoform (Homo sapiens, UniProt P42336)
- Sequence (P42336 whole entry, canonical isoform): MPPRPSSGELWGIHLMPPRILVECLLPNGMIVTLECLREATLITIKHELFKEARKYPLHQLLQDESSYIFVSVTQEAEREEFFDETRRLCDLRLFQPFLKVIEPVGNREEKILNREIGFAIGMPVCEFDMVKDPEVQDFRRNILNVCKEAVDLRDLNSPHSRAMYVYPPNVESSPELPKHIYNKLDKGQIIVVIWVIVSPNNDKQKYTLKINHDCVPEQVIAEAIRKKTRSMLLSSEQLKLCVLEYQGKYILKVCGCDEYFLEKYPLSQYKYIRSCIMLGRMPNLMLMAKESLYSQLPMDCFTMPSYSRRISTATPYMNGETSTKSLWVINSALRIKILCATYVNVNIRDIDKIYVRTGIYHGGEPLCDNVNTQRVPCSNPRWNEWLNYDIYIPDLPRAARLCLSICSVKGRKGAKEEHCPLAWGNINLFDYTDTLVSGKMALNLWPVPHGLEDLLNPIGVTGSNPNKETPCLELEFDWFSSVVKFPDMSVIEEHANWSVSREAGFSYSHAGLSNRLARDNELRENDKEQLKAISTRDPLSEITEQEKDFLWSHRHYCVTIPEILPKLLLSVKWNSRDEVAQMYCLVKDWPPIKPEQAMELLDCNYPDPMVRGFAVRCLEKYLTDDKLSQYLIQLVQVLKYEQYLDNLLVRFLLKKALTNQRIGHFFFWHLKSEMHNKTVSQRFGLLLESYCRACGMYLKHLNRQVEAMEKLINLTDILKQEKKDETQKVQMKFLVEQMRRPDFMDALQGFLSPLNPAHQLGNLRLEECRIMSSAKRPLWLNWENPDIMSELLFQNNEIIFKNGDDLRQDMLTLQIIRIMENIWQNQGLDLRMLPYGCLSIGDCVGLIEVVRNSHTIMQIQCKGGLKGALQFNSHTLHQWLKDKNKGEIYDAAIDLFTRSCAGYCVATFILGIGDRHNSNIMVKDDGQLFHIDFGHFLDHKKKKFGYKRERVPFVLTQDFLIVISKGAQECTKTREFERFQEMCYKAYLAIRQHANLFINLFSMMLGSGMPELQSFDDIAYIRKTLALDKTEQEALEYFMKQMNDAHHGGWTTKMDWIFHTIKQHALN
- Experiment Description: Inhibition of human PI3Kalpha
Parameter Measured: IC50 (nM)

[[record]]
chemical_string = "COc1cccc(Nc2nccc(-c3ccc(Cl)cc3Cl)n2)c1"
parameter_measured = "IC50"
scale_unit = "nM"
test_value = 851

[[record]]
chemical_string = "O=[N+]([O-])c1ccc(Nc2nccc(-c3ccc(Br)cc3)n2)cc1"
parameter_measured = "IC50"
scale_unit = "nM"
test_value = 946

[[record]]
chemical_string = "O=[N+]([O-])c1ccc(Nc2nccc(-c3ccc(F)cc3)n2)cc1"
parameter_measured = "IC50"
scale_unit = "nM"
test_value = 679


(P) COc1ccc(-c2ccnc(Nc3ccc([N+](=O)[O-])cc3)n2)cc1
(Q) Cc1cccc(Nc2nccc(-c3ccc(Cl)cc3Cl)n2)c1
Qu. // pick min by IC50: P , Q # answer = label of selected item
Ans. P
(P: 527 nM, Q: 813 nM)

(I) COc1ccc(-c2ccnc(Nc3cccc(OC)c3)n2)cc1
(II) Clc1ccc(Nc2nccc(-c3ccc(Br)cc3)n2)cc1
Qu. Pick one: I or II . Which one has the lower reported IC50? Reply briefly: the label of your chosen item.
Ans. I
(I: 615 nM, II: 914 nM)

(A) COc1cccc(Nc2nccc(-c3ccc(Cl)c(Cl)c3)n2)c1
(B) O=[N+]([O-])c1ccc(Nc2nccc(-c3ccc(Cl)cc3Cl)n2)cc1
Qu. Param metric = IC50; output whichever of A , B has the minimum value. Field: selected label. Fill in the label of the entry you choose.
Ans. A

---

- Assayed Target: Phosphatidylinositol 4,5-bisphosphate 3-kinase catalytic subunit gamma isoform (Homo sapiens, UniProt P48736)
- Sequence (P48736 whole entry, canonical isoform): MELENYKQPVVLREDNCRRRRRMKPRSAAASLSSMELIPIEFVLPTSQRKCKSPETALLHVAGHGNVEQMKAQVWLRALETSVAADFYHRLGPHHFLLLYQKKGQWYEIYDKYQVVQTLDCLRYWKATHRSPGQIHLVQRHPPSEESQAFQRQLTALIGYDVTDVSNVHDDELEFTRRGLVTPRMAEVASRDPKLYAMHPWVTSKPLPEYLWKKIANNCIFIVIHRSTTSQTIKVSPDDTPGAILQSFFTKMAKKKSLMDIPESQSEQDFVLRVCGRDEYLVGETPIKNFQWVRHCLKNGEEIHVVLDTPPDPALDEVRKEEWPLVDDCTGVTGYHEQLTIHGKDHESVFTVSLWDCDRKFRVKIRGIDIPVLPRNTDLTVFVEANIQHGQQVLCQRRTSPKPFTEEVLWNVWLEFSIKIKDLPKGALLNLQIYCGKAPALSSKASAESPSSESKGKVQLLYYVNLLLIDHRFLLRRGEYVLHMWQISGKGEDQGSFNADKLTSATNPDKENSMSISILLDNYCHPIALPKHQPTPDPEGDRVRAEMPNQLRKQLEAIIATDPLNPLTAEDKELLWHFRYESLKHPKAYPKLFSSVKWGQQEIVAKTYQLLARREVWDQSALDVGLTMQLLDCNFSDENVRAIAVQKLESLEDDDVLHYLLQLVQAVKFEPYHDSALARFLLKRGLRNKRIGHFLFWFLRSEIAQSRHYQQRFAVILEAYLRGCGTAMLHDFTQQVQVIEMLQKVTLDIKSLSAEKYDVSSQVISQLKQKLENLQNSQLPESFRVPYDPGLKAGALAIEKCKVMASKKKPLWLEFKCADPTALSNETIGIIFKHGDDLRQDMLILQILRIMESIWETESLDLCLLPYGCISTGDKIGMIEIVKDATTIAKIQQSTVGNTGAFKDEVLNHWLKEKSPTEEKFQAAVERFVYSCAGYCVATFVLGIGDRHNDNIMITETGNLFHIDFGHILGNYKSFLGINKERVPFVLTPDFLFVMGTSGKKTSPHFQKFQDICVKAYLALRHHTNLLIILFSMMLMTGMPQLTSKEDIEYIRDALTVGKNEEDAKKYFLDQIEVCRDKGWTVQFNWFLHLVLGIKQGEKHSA
- Experiment Description: Inhibition of human PI3Kgamma
- Condition Set: read-out: IC50
Parameter Measured: IC50 (µM)

Field: example entries. Status: answers known.
[[record]]
chemical_string = "Cc1cccc(Nc2nccc(-c3ccc(Cl)cc3Cl)n2)c1"
parameter_measured = "IC50"
scale_unit = "µM"
test_value = 0.274

[[record]]
chemical_string = "COc1cccc(Nc2nccc(-c3ccc(Cl)cc3Cl)n2)c1"
parameter_measured = "IC50"
scale_unit = "µM"
test_value = 0.278

[[record]]
chemical_string = "COc1ccc(-c2ccnc(Nc3ccc(Cl)cc3)n2)cc1"
parameter_measured = "IC50"
scale_unit = "µM"
test_value = 0.167

[[record]]
chemical_string = "COc1cccc(Nc2nccc(-c3ccc(Cl)c(Cl)c3)n2)c1"
parameter_measured = "IC50"
scale_unit = "µM"
test_value = 0.217


(1) Cc1cccc(Nc2nccc(-c3ccc(Br)cc3)n2)c1
(2) COc1ccc(-c2ccnc(Nc3ccc([N+](=O)[O-])cc3)n2)cc1
Qu. Looking at 1 and 2 , which one comes out lower in IC50 terms? Answer by stating the label of the chosen item.
Ans. 2

---

- Assayed Target: Phosphatidylinositol 4,5-bisphosphate 3-kinase catalytic subunit gamma isoform (Homo sapiens)
- Experiment Description: Inhibition of human PI3Kgamma
- Condition Set: read-out: IC50
pIC50: −log10 of the molar value.
Parameter Measured: pIC50

[[record]]
chemical_string = "O=[N+]([O-])c1ccc(Nc2nccc(-c3ccc(Cl)cc3Cl)n2)cc1"
test_value = 6.41

[[record]]
chemical_string = "Clc1ccc(Nc2nccc(-c3ccc(Br)cc3)n2)cc1"
test_value = 6.52

[[record]]
chemical_string = "Cc1ccc(-c2ccnc(Nc3ccc(Cl)cc3Cl)n2)cc1"
test_value = 6.43

[[record]]
chemical_string = "Clc1ccc(Nc2nccc(-c3ccc(Cl)c(Cl)c3)n2)c(Cl)c1"
test_value = 6.60

[[record]]
chemical_string = "COc1cccc(Nc2nccc(-c3ccc(Br)cc3)n2)c1"
test_value = 6.45


Where do the numbers come from? From ChEMBL document CHEMBL3132747.
